# TARGET_DESC: T1, TNF-α (UniProt P01375 77-233, limits assumed)
# T1 construct: also called tumor necrosis factor; ligand
# ASSAY_SUMMARY: competition ELISA: sample vs plate-bound TNFRI190 for TNF-α, from IC50, relative to wild-type TNFRI126
RECORDED_METRIC: Affinity (%)
Report the figure in % without appending any unit label.

>>> result_value("TNFRI126-A5 (receptor, Met-TNFRI126 mutant made in E. coli) MDSVCPQGKYIHPQNNSICCTKCHKGTYLYNDCPGPGQDTDCRECESGSFTAVENFLPACLSCSKCRKEMGQVEISSCTVDRDTVCGCRKNQYRHYWSENLFQCFNCSLCLNGTVHLSCQEKQNTVC")
712
>>> result_value("TNFRI126-A6 (receptor, Met-TNFRI126 mutant made in E. coli) MDSVCPQGKYIHPQNNSICCTKCHKGTYLYNDCPGPGQDTDCRECESGSFTALENFLPACLSCSKCRKEMGQVEISSCTVDRDTVCGCRKNQYRHYWSENLFQCFNCSLCLNGTVHLSCQEKQNTVC")
741
>>> result_value("TNFRI126-A3 (receptor, Met-TNFRI126 mutant made in E. coli) MDSVCPQGKYIHPQNNSICCTKCHKGTYLYNDCPGPGQDTDCRECESGSFTAGENFLPACLSCSKCRKEMGQVEISSCTVDRDTVCGCRKNQYRHYWSENLFQCFNCSLCLNGTVHLSCQEKQNTVC")
341
>>> result_value("TNFRI126-A20 (receptor, Met-TNFRI126 mutant made in E. coli) MDSVCPQGKYIHPQNNSICCTKCHKGTYLYNDCPGPGQDTDCRECESGSFTAEENFLPACLSCSKCRKEMGQVEISSCTVDRDTVCGCRKNQYRHYWSENLFQCFNCSLCLNGTVHLSCQEKQNTVC")
782

Sample Met-TNFRI126 (receptor, also called Wild-type (TNFRI126); wild-type TNFRI) MDSVCPQGKYIHPQNNSICCTKCHKGTYLYNDCPGPGQDTDCRECESGSFTASENHLRHCLSCSKCRKEMGQVEISSCTVDRDTVCGCRKNQYRHYWSENLFQCFNCSLCLNGTVHLSCQEKQNTVC ; Affinity (%) observed: 100

Sample TNFRI126-A29 (receptor, Met-TNFRI126 mutant made in E. coli) MDSVCPQGKYIHPQNNSICCTKCHKGTYLYNDCPGPGQDTDCRECESGSFTAIPNFLFGCLSCSKCRKEMGQVEISSCTVDRDTVCGCRKNQYRHYWSENLFQCFNCSLCLNGTVHLSCQEKQNTVC ; Affinity (%) observed: 435

Sample TNFRI126-A19 (receptor, Met-TNFRI126 mutant made in E. coli) MDSVCPQGKYIHPQNNSICCTKCHKGTYLYNDCPGPGQDTDCRECESGSFTADENFLPACLSCSKCRKEMGQVEISSCTVDRDTVCGCRKNQYRHYWSENLFQCFNCSLCLNGTVHLSCQEKQNTVC ; Affinity (%) observed: 482

Sample TNFRI126-A13 (receptor, Met-TNFRI126 mutant made in E. coli) MDSVCPQGKYIHPQNNSICCTKCHKGTYLYNDCPGPGQDTDCRECESGSFTAQENFLPACLSCSKCRKEMGQVEISSCTVDRDTVCGCRKNQYRHYWSENLFQCFNCSLCLNGTVHLSCQEKQNTVC ; Affinity (%) observed: 806

These measurements were taken from patent US20120277142A1.
